Recorded Biodistribution: spleen by entry
System: PSMA+ PC-3 PiP and PSMA− PC-3 flu tumors
Conditions: 1 h; co-injection 0.5 nmole YC-I-27

>>> observed_measurement("O=C(O)CC[C@H](NC(=O)N[C@@H](CCC(=O)NCCc1ccc([125I])cc1)C(=O)O)C(=O)O [[^125I]HS-549]")
"0.8 ± 0.2 % injected dose/gram"
>>> observed_measurement("O=C([O-])CN1CCN(CC(=O)[O-])CCN(CC(=O)NCCCCC(=O)N(CCCC[C@H](NC(=O)N[C@@H](CCC(=O)O)C(=O)O)C(=O)O)Cc2ccc([211At])cc2)CCN(CC(=O)[O-])CC1.[Lu+3] [[^211At]VK-02-90-Lu]")
"0.3 ± 0.4 % injected dose/gram"
>>> observed_measurement("O=C([O-])CN1CCN(CC(=O)[O-])CCN(CC(=O)NCCCCC(=O)N(CCCC[C@H](NC(=O)N[C@@H](CCC(=O)O)C(=O)O)C(=O)O)Cc2ccc([125I])cc2)CCN(CC(=O)[O-])CC1.[Lu+3] [[^125I]VK-02-90-Lu]")
"0.8 ± 0.2 % injected dose/gram"

--- query ---
Ask | Can you look up the measured Biodistribution: spleen of O=C(O)CC[C@H](NC(=O)N[C@@H](CCCCN(Cc1ccc([125I])cc1)C(=O)CCCCNC(=O)CN1CCN(CC(=O)O)CCN(CC(=O)O)CCN(CC(=O)O)CC1)C(=O)O)C(=O)O [[^125I]VK-02-90] for me?
Reply | 0.8 ± 0.14 % injected dose/gram

====

Tested on: PSMA+ PC-3 PiP and PSMA− PC-3 flu tumors
Conditions: 24 h; co-injection 0.5 nmole YC-I-27
ASSAY READOUT: Biodistribution: spleen
Dear colleague, please send the value followed by its unit.

>>> observed_measurement("O=C([O-])CN1CCN(CC(=O)[O-])CCN(CC(=O)NCCCCC(=O)N(CCCC[C@H](NC(=O)N[C@@H](CCC(=O)O)C(=O)O)C(=O)O)Cc2ccc([211At])cc2)CCN(CC(=O)[O-])CC1.[Lu+3] [[^211At]VK-02-90-Lu]")
"02.5 ± 4.3 % injected dose/gram"
>>> observed_measurement("O=C(O)CC[C@H](NC(=O)N[C@@H](CCC(=O)NCCc1ccc([125I])cc1)C(=O)O)C(=O)O [[^125I]HS-549]")
"0.1 ± 0.07 % injected dose/gram"
>>> observed_measurement("O=C(O)CC[C@H](NC(=O)N[C@@H](CCCCN(Cc1ccc([125I])cc1)C(=O)CCCCNC(=O)CN1CCN(CC(=O)O)CCN(CC(=O)O)CCN(CC(=O)O)CC1)C(=O)O)C(=O)O [[^125I]VK-02-90]")
"0.05 ± 0.04 % injected dose/gram"

Ask | Can you look up the measured Biodistribution: spleen of O=C([O-])CN1CCN(CC(=O)[O-])CCN(CC(=O)NCCCCC(=O)N(CCCC[C@H](NC(=O)N[C@@H](CCC(=O)O)C(=O)O)C(=O)O)Cc2ccc([125I])cc2)CCN(CC(=O)[O-])CC1.[Lu+3] [[^125I]VK-02-90-Lu] for me?
Reply | 0.04 ± 0.01 % injected dose/gram

====

Tested on: PSMA+ PC-3 PiP and PSMA− PC-3 flu tumors
Conditions: 1 h; No CI
ASSAY READOUT: Biodistribution: Blood (% injected dose/gram)
# value in % injected dose/gram; strip the unit string

The following molecules have reported results that may help.
>>> observed_measurement("O=C([O-])CN1CCN(CC(=O)[O-])CCN(CC(=O)NCCCCC(=O)N(CCCC[C@H](NC(=O)N[C@@H](CCC(=O)O)C(=O)O)C(=O)O)Cc2ccc([211At])cc2)CCN(CC(=O)[O-])CC1.[Lu+3] [[^211At]VK-02-90-Lu]")
0.8
>>> observed_measurement("O=C([O-])CN1CCN(CC(=O)[O-])CCN(CC(=O)NCCCCC(=O)N(CCCC[C@H](NC(=O)N[C@@H](CCC(=O)O)C(=O)O)C(=O)O)Cc2ccc([125I])cc2)CCN(CC(=O)[O-])CC1.[Lu+3] [[^125I]VK-02-90-Lu]")
1.1
>>> observed_measurement("O=C(O)CC[C@H](NC(=O)N[C@@H](CCCCN(Cc1ccc([125I])cc1)C(=O)CCCCNC(=O)CN1CCN(CC(=O)O)CCN(CC(=O)O)CCN(CC(=O)O)CC1)C(=O)O)C(=O)O [[^125I]VK-02-90]")
1.1

--- query ---
Ask | Can you look up the measured Biodistribution: Blood of O=C(O)CC[C@H](NC(=O)N[C@@H](CCC(=O)NCCc1ccc([125I])cc1)C(=O)O)C(=O)O [[^125I]HS-549] for me?
Reply | 5.9

====

Recorded Biodistribution: Flu tumor by entry
Tested on: PSMA+ PC-3 PiP and PSMA− PC-3 flu tumors
Details: 24 h; co-injection 0.5 nmole YC-I-27
# value in % injected dose/gram; strip the unit string

>>> observed_measurement("O=C([O-])CN1CCN(CC(=O)[O-])CCN(CC(=O)NCCCCC(=O)N(CCCC[C@H](NC(=O)N[C@@H](CCC(=O)O)C(=O)O)C(=O)O)Cc2ccc([125I])cc2)CCN(CC(=O)[O-])CC1.[Lu+3] [[^125I]VK-02-90-Lu]")
0.04
>>> observed_measurement("O=C([O-])CN1CCN(CC(=O)[O-])CCN(CC(=O)NCCCCC(=O)N(CCCC[C@H](NC(=O)N[C@@H](CCC(=O)O)C(=O)O)C(=O)O)Cc2ccc([211At])cc2)CCN(CC(=O)[O-])CC1.[Lu+3] [[^211At]VK-02-90-Lu]")
0.2
>>> observed_measurement("O=C(O)CC[C@H](NC(=O)N[C@@H](CCCCN(Cc1ccc([125I])cc1)C(=O)CCCCNC(=O)CN1CCN(CC(=O)O)CCN(CC(=O)O)CCN(CC(=O)O)CC1)C(=O)O)C(=O)O [[^125I]VK-02-90]")
0.02

--- query ---
Ask | Can you look up the measured Biodistribution: Flu tumor of O=C(O)CC[C@H](NC(=O)N[C@@H](CCC(=O)NCCc1ccc([125I])cc1)C(=O)O)C(=O)O [[^125I]HS-549] for me?
Reply | 0.2

====

System: PSMA+ PC-3 PiP and PSMA− PC-3 flu tumors
Conditions: 1 h; co-injection 0.5 nmole YC-I-27
Recorded Biodistribution: kidneys by entry
# value in % injected dose/gram; strip the unit string

The following compounds have reported results that may help.
>>> observed_measurement("O=C([O-])CN1CCN(CC(=O)[O-])CCN(CC(=O)NCCCCC(=O)N(CCCC[C@H](NC(=O)N[C@@H](CCC(=O)O)C(=O)O)C(=O)O)Cc2ccc([211At])cc2)CCN(CC(=O)[O-])CC1.[Lu+3] [[^211At]VK-02-90-Lu]")
2.2
>>> observed_measurement("O=C(O)CC[C@H](NC(=O)N[C@@H](CCCCN(Cc1ccc([125I])cc1)C(=O)CCCCNC(=O)CN1CCN(CC(=O)O)CCN(CC(=O)O)CCN(CC(=O)O)CC1)C(=O)O)C(=O)O [[^125I]VK-02-90]")
10.0
>>> observed_measurement("O=C(O)CC[C@H](NC(=O)N[C@@H](CCC(=O)NCCc1ccc([125I])cc1)C(=O)O)C(=O)O [[^125I]HS-549]")
12.1

--- query ---
Ask | Can you look up the measured Biodistribution: kidneys of O=C([O-])CN1CCN(CC(=O)[O-])CCN(CC(=O)NCCCCC(=O)N(CCCC[C@H](NC(=O)N[C@@H](CCC(=O)O)C(=O)O)C(=O)O)Cc2ccc([125I])cc2)CCN(CC(=O)[O-])CC1.[Lu+3] [[^125I]VK-02-90-Lu] for me?
Reply | 4.2

====

Recorded Biodistribution: Lacrimal gland by entry
System: PSMA+ PC-3 PiP and PSMA− PC-3 flu tumors
Settings: 24 h; co-injection 0.5 nmole YC-I-27
# value in % injected dose/gram; strip the unit string

Ask | Can you look up the measured Biodistribution: Lacrimal gland of O=C(O)CC[C@H](NC(=O)N[C@@H](CCCCN(Cc1ccc([125I])cc1)C(=O)CCCCNC(=O)CN1CCN(CC(=O)O)CCN(CC(=O)O)CCN(CC(=O)O)CC1)C(=O)O)C(=O)O [[^125I]VK-02-90] for me?
Reply | 0.02

Ask | Now the same for O=C([O-])CN1CCN(CC(=O)[O-])CCN(CC(=O)NCCCCC(=O)N(CCCC[C@H](NC(=O)N[C@@H](CCC(=O)O)C(=O)O)C(=O)O)Cc2ccc([211At])cc2)CCN(CC(=O)[O-])CC1.[Lu+3] [[^211At]VK-02-90-Lu]
Reply | 0

Ask | Now the same for O=C([O-])CN1CCN(CC(=O)[O-])CCN(CC(=O)NCCCCC(=O)N(CCCC[C@H](NC(=O)N[C@@H](CCC(=O)O)C(=O)O)C(=O)O)Cc2ccc([125I])cc2)CCN(CC(=O)[O-])CC1.[Lu+3] [[^125I]VK-02-90-Lu]
Reply | 0.03

Ask | Now the same for O=C(O)CC[C@H](NC(=O)N[C@@H](CCC(=O)NCCc1ccc([125I])cc1)C(=O)O)C(=O)O [[^125I]HS-549]
Reply | 0.2

Values were extracted from patent US20210338846A1.
